Would you kindly list log10 CC50 at 48 h for each of these compounds?
- experiment.notes: Cytotoxicity against human HepG2A16 cells after 48 hrs by MTT assay
- Format: cell-based
Record value = log10 of CC50 at 48 h given in µM.

Consider the reported log10 CC50 at 48 h for these compounds:
compound.structure.string	test.result
COc1ccc2c(c1)[n+]([O-])c(/C=N/Nc1c(Cl)cc(Cl)cc1Cl)c(C)[n+]2[O-]	2.32
Cc1c(/C=N/Nc2cccc(Cl)c2)[n+]([O-])c2ccccc2[n+]1[O-]	1.67
Cc1c(/C=N/NC(=O)c2ccc(Cl)cc2)[n+]([O-])c2ccccc2[n+]1[O-]	1.45

Quick request: log10 CC50 at 48 h for each listed item, please.
1. Cc1c(C)[n+]([O-])c2ccccc2[n+]1[O-]
2. Cc1ccc(S(=O)(=O)N/N=C/c2c(C)[n+]([O-])c3ccccc3[n+]2[O-])cc1

1. 2.51
2. 2.38

Quick request: log10 CC50 at 48 h for each listed item, please.
1. Cc1c(/C=N/NC(=O)c2ccncc2)[n+]([O-])c2ccccc2[n+]1[O-]
2. Cc1c(/C=N/NC(=O)c2ccccc2)[n+]([O-])c2ccccc2[n+]1[O-]
3. Cc1c(/C=N/Nc2ccccc2)[n+]([O-])c2ccccc2[n+]1[O-]

1: 1.96; 2: 1.61; 3: 1.55
